Some variants, each annotated with its measured abundance fitness.
B1: Cyclin-F, residues 28 to 80; numbered along this chain, P41002 (parent)
chain: RNLTILSLPEDVLFHILKWLSVEDILAVRAVHSQLKDLVDNHASVWACASFQE

# Variants of: B1
# Protocol Text: abundance fitness (aPCA) (normalised: wild type 0, dead -1); higher = more abundant; growth selection in yeast, the domain comes from the species named
# Setup Conditions: Homo sapiens

Mutant Code | abundance fitness
Q52R | -0.02
S50E | -0.114
I5P | -0.559
L13E | -0.81
T4G | -0.068
L38N | -0.906
V28K | -0.71
P9D | -0.541
L38Q | -0.682
D37W | -0.42
K18M | -0.251
H32S | 0.096
L35P | -0.842
E23K | -0.105
W19H | 0.257
S33Q | -0.672
V39C | -0.245
H42S | -0.347
E53F | -0.582
H32M | -1.09
E53L | -0.543
P9T | -0.69
A47M | -0.095
A27G | -0.787
T4C | -0.55
E23R | -0.001
R29E | -0.863
E23C | -0.627
L35V | -0.768
V12Y | -0.846
K18D | -0.483
N41T | -0.131
A47F | 0.386
W19T | -0.269
R29W | -0.814
P9Q | -0.735
D40P | -0.791
L13S | -0.67
V39T | -0.787
S21W | -0.824
S21N | -0.148
V45D | 0.289
H15P | -0.731
K18L | -0.553
F14A | 0.132
V28N | -1.09
